# target-system: human BCL6 BTB domain (Trx-6xHis-BCL6) (Homo sapiens (Human))
# protocol-notes: HTRF in vitro assay (BCL6 BTB domain / BCOR-AF633 peptide)
# Format: binding
# cond: initially generated data (Table 1a); 10 nM Trx-6xHis-BCL6, 1 nM anti-6xHis-Terbium cryptate

{"compound": "CC(Nc1cc(=O)n(C)c2ccc(Nc3ccnc(Cl)c3C#N)cc12)c1ccncn1 (centres unmarked)", "HTRF pIC50": 6.10}
{"compound": "Cn1c(=O)cc(NC(C)(C)c2ncccn2)c2cc(Nc3ccnc(Cl)c3C#N)cnc21", "HTRF pIC50": 6.68}
{"compound": "CCNc1cc(=O)n(C)c2ccc(Nc3cc(C(=O)NC)nc(Cl)c3C#N)cc12", "HTRF pIC50": 6.21}
{"compound": "Cc1cc(C(C)Nc2cc(=O)n(C)c3ccc(Nc4ccnc(Cl)c4C#N)cc23)no1 (centres unmarked)", "HTRF pIC50": 6.15}
{"compound": "Cc1ccnc(C(C)Nc2cc(=O)n(C)c3ccc(Nc4ccnc(Cl)c4C#N)cc23)n1 (centres unmarked)", "HTRF pIC50": 6.31}
{"compound": "CNC(=O)c1cc(Nc2ccc3c(c2)c(NC(C)(C)c2ncccn2)cc(=O)n3C)c(C#N)c(Cl)n1", "HTRF pIC50": 7.44}
{"compound": "C#CCCNC(=O)[C@@H](C)Nc1cc(=O)n(C)c2ccc(Nc3ccnc(Cl)c3C#N)cc12", "HTRF pIC50": 6.48}
{"compound": "CNC(=O)c1cc(Nc2ccc3c(c2)c(NC(C)c2ncccn2)cc(=O)n3C)c(C#N)c(Cl)n1 (centres unmarked)", "HTRF pIC50": 6.76}
{"compound": "CC(Nc1cc(=O)n(C)c2ccc(Nc3ccnc(Cl)c3C#N)cc12)c1nccs1 (centres unmarked)", "HTRF pIC50": 6.03}
{"compound": "Cc1nc(C(C)Nc2cc(=O)n(C)c3ccc(Nc4ccnc(Cl)c4C#N)cc23)no1 (centres unmarked)", "HTRF pIC50": 6.40}
{"compound": "Cn1c(=O)cc(NC2(C)CC2)c2cc(Nc3cc(C(=O)O)nc(Cl)c3C#N)ccc21", "HTRF pIC50": 6.36}
{"compound": "CC(CO)Nc1nc(=O)n(C)c2ccc(Nc3ccnc(Cl)c3C#N)cc12 (centres unmarked)", "HTRF pIC50": 6.18}
{"compound": "Cn1c(=O)cc(N[C@H]2CCOC2)c2cc(Nc3ccnc(Cl)c3C#N)ccc21", "HTRF pIC50": 6.10}
{"compound": "CC(Nc1cc(=O)n(C)c2ccc(Nc3ccnc(Cl)c3C#N)cc12)c1nc[nH]n1 (centres unmarked)", "HTRF pIC50": 6.50}
{"compound": "CCNc1cc(=O)n(C)c2ccc(Nc3cc(C(=O)O)nc(Cl)c3C#N)cc12", "HTRF pIC50": 6.06}
{"compound": "Cc1cc(Nc2ccc3c(c2)c(NC(C)c2ncccn2)cc(=O)n3C)c(C#N)c(Cl)n1 (centres unmarked)", "HTRF pIC50": 6.29}
{"compound": "C[C@@H](CO)Nc1cc(=O)n(C)c2ccc(Nc3ccnc(Cl)c3C#N)cc12", "HTRF pIC50": 6.43}

Source: patent US11161839B2
